Listed below: residual activity values for each entry.
target_or_system: Solute carrier organic anion transporter family member 1B1 (Homo sapiens, UniProt Q9Y6L6)
Sequence (Q9Y6L6 whole entry): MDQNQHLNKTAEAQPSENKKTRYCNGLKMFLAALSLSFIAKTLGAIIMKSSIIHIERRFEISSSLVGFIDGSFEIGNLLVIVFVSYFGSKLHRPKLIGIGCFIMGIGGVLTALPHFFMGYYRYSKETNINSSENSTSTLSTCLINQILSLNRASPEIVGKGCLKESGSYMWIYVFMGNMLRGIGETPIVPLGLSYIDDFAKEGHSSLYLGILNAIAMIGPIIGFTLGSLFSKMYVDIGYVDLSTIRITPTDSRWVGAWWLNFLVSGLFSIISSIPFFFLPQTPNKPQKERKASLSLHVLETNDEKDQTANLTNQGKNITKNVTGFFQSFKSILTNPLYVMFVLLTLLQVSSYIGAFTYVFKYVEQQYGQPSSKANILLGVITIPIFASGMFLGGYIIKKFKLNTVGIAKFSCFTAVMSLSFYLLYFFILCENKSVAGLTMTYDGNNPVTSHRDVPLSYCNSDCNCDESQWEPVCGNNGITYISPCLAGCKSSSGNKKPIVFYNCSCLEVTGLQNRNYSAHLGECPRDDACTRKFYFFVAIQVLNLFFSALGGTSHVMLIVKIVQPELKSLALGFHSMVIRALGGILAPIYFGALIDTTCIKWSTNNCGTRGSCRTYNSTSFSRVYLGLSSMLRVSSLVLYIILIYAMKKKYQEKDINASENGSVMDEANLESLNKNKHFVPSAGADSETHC
test_context: chinese hamster, cho, 10 µM

{"molecule": "CC(=O)[C@H]1CC[C@H]2[C@@H]3C[C@H](C)C4=CC(=O)CC[C@]4(C)[C@H]3[C@@H](O)C[C@]12C", "target_or_system": "Solute carrier organic anion transporter family member 1B1 (Homo sapiens, UniProt Q9Y6L6)", "residual activity (%)": 86.36}
{"molecule": "COc1ccc2c(=O)c(CC(=O)O)coc2c1 [ANHYDROBRAZILIC ACID]", "target_or_system": "Solute carrier organic anion transporter family member 1B1 (Homo sapiens, UniProt Q9Y6L6)", "residual activity (%)": 56.09}
{"molecule": "COc1cc2c(cc1-c1cc3cc4ccoc4cc3oc1=O)OCO2", "target_or_system": "Solute carrier organic anion transporter family member 1B1 (Homo sapiens, UniProt Q9Y6L6)", "residual activity (%)": 139.6}
{"molecule": "c1ccc(-c2ccc(C(c3ccccc3)n3ccnc3)cc2)cc1 (stereo not given)", "target_or_system": "Solute carrier organic anion transporter family member 1B1 (Homo sapiens, UniProt Q9Y6L6)", "residual activity (%)": 121.1}
{"molecule": "CC(NCCc1ccc(O)cc1)C(O)c1ccc(O)cc1.Cl (stereo not given) [RITODRINE HYDROCHLORIDE]", "target_or_system": "Solute carrier organic anion transporter family member 1B1 (Homo sapiens, UniProt Q9Y6L6)", "residual activity (%)": 125.6}
{"molecule": "Cl.Nc1ccc(/N=N/c2ccccc2)c(N)n1 [PHENAZOPYRIDINE HYDROCHLORIDE]", "target_or_system": "Solute carrier organic anion transporter family member 1B1 (Homo sapiens, UniProt Q9Y6L6)", "residual activity (%)": 115.4}
{"molecule": "Nc1nc(N)c2nc(-c3ccccc3)c(N)nc2n1", "target_or_system": "Solute carrier organic anion transporter family member 1B1 (Homo sapiens, UniProt Q9Y6L6)", "residual activity (%)": 78.63}
{"molecule": "CCCOc1ccccc1-c1nc2nn[nH]c2c(=O)[nH]1", "target_or_system": "Solute carrier organic anion transporter family member 1B1 (Homo sapiens, UniProt Q9Y6L6)", "residual activity (%)": 98.85}
{"molecule": "C=C[C@H]1CN2CC[C@H]1C[C@H]2[C@H](O)c1ccnc2ccc(OC)cc12.C=C[C@H]1CN2CC[C@H]1C[C@H]2[C@H](O)c1ccnc2ccc(OC)cc12.O.O.O=S(=O)(O)O [QUININE SULFATE]", "target_or_system": "Solute carrier organic anion transporter family member 1B1 (Homo sapiens, UniProt Q9Y6L6)", "residual activity (%)": 92.08}
{"molecule": "Cc1cc(C)cc(OCC2CNC(=O)O2)c1 (stereo not given)", "target_or_system": "Solute carrier organic anion transporter family member 1B1 (Homo sapiens, UniProt Q9Y6L6)", "residual activity (%)": 88.21}
{"molecule": "CC1(C)CC2C1CCC1(C)OC1CCC2(C)O (stereo not given)", "target_or_system": "Solute carrier organic anion transporter family member 1B1 (Homo sapiens, UniProt Q9Y6L6)", "residual activity (%)": 70.41}
{"molecule": "Oc1c(Br)cc(Br)c2cccnc12", "target_or_system": "Solute carrier organic anion transporter family member 1B1 (Homo sapiens, UniProt Q9Y6L6)", "residual activity (%)": 57.32}
{"molecule": "CC(C)=CCOc1c2occc2cc2ccc(=O)oc12", "target_or_system": "Solute carrier organic anion transporter family member 1B1 (Homo sapiens, UniProt Q9Y6L6)", "residual activity (%)": 222.8}
{"molecule": "COc1ccc2c(c1)CC[C@@H]1[C@@H]2CC[C@]2(C)[C@@H](O)[C@H](O)C[C@@H]12", "target_or_system": "Solute carrier organic anion transporter family member 1B1 (Homo sapiens, UniProt Q9Y6L6)", "residual activity (%)": 76.58}
{"molecule": "C[C@@H]1CC[C@@]2(OC1)O[C@H]1[C@@H](O)[C@H]3[C@@H]4CC[C@H]5C[C@@H](O[C@@H]6O[C@H](CO)[C@H](O[C@@H]7O[C@H](CO)C(O)[C@H](O[C@@H]8OC[C@@H](O)[C@H](O)[C@H]8O)[C@H]7O[C@@H]7O[C@H](CO)[C@H](O)[C@H](O[C@@H]8O[C@H](CO)[C@@H](O)[C@H](O)[C@H]8O)[C@H]7O)[C@H](O)[C@H]6O)[C@H](O)C[C@]5(C)[C@H]4CC[C@]3(C)[C@H]1[C@@H]2C (stereo not given in full)", "target_or_system": "Solute carrier organic anion transporter family member 1B1 (Homo sapiens, UniProt Q9Y6L6)", "residual activity (%)": 76.09}

Data provenance is ChEMBL document CHEMBL3039007.
